The measured values listed here are drawn from PubChem BioAssay (NCI).

Tested on: NCI/ADR-RES ovarian
protocol details: NCI tumour cell line growth inhibition, 48 h
parameter: GI50

Worked cases, answers included:
S=c1sc2c(Cl)nc(-c3cccnc3)nc2n1-c1ccccc1 : 3.05 µM
COc1c(N2CCN(CN3C(=O)C(=O)c4cc(Cl)ccc43)C(C)C2)c(F)cc2c(=O)c(C(=O)O)cn(C3CC3)c12 (stereo not drawn) : 76.4 µM
CN(CCCCCl)P(=O)(OCc1ccc([N+](=O)[O-])o1)OCC1OC(n2cnc([N+](=O)[O-])c2N)C(O)C1O (stereo not drawn) : > 100 µM

Incoming: Param item = `N#CC(C#N)=C/C=C(\Sc1ccc(F)cc1Cl)c1ccc(Cl)cc1` ; retrieve measured GI50.
Outgoing: 0.791 µM

Incoming: Ok, now `NC1(Cc2ccc(Cl)cc2)CCN(c2ncnc3[nH]ccc23)CC1`
Outgoing: 9.97 µM

Incoming: Ok, now `CC(=O)/C=C/c1ccc(OCc2ccc(Cl)cc2)cc1`
Outgoing: 395 µM

Incoming: Ok, now `Nc1nc(N)c2nc3c(nc2n1)CCCCCCCCCC3`
Outgoing: 2.4 µM

Incoming: Ok, now CCCCOC1OC(COC(=O)C(C)C)C(OC(=O)C(C)C)C(O)C1OC1OC(C)C(OC(=O)CCC)C(OC(=O)C(C)C)C1O (stereo not drawn)
Outgoing: 3.85 µM
